Molecular target: T1, interleukin 18 binding protein (IL-18BP) (UniProt O95998 31-194)
T1 sequence (looked up): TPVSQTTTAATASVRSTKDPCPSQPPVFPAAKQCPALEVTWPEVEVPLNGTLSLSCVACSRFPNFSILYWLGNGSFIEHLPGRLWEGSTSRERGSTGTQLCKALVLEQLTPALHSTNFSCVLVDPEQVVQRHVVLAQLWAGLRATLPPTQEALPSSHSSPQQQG
Experiment: cell-based or functional assay
Exercise: state measured EC50 (pM) + 100 nM BP, HEK-blue re-screening for each of the binders provided.
Remember to quote the unit after the number.

query: Which EC50 (pM) + 100 nM BP, HEK-blue re-screening value is on record for IL-18 variant G3S, E6G, D54V, S55K, T63S, N91Y, R104T (ligand) YFSKLGSKLSVIRNLNDQVLFIDQGNRPLFEDMTDSDMRDNAPRTIFIISMYKVKQPRGMAVSISVKSEKISTLSSENKIISFKEMNPPDYIKDTKSDIIFFQTSVPGHDNKMQFESSSYEGYFLASEKERDLFKLILKKEDELGDRSIMFTVQNED ?
result: 4.87 pM

query: Which EC50 (pM) + 100 nM BP, HEK-blue re-screening value is on record for IL-18 variant G3D, E6Q, R27S, K53R, D54A, S55R, T63S, N91Q (ligand) YFDKLQSKLSVIRNLNDQVLFIDQGNSPLFEDMTDSDMRDNAPRTIFIISMYRARQPRGMAVSISVKSEKISTLSSENKIISFKEMNPPDQIKDTKSDIIFFQRSVPGHDNKMQFESSSYEGYFLASEKERDLFKLILKKEDELGDRSIMFTVQNED ?
result: 25.7 pM

query: Which EC50 (pM) + 100 nM BP, HEK-blue re-screening value is on record for IL-18 variant G3Q, E6G, D54N, S55H, T63V, N91M, R104T (ligand) YFQKLGSKLSVIRNLNDQVLFIDQGNRPLFEDMTDSDMRDNAPRTIFIISMYKNHQPRGMAVVISVKSEKISTLSSENKIISFKEMNPPDMIKDTKSDIIFFQTSVPGHDNKMQFESSSYEGYFLASEKERDLFKLILKKEDELGDRSIMFTVQNED ?
result: 2.66 pM

query: Which EC50 (pM) + 100 nM BP, HEK-blue re-screening value is on record for IL-18 variant G3L, E6Q, T63S, N91L, R104T (ligand) YFLKLQSKLSVIRNLNDQVLFIDQGNRPLFEDMTDSDMRDNAPRTIFIISMYKDSQPRGMAVSISVKSEKISTLSSENKIISFKEMNPPDLIKDTKSDIIFFQTSVPGHDNKMQFESSSYEGYFLASEKERDLFKLILKKEDELGDRSIMFTVQNED ?
result: 1.67 pM
